Values compiled from patent US10513547B2.

- Assay system: HLA-A*02:01 (Homo sapiens, UniProt P04439, D140Y/D185E/D98H/E176V/E277Q/G131W/G231S/I119V/I121R/I166T/I218V/L300P/L318F/N151K/N90K/P208A/P217A/Q86G/Q94H/R138H/R169H/T345S)
- Experiment summary: MHC binding assay (UV-ligand exchange, beta2m ELISA, peptide exchange yield)
- Experimental parameters: binding to HLA-A*02:01
Recorded metric: Peptide exchange (MHC class I binding score, peptide exchange yield)

The cases that follow already have their Peptide exchange (MHC class I binding score, peptide exchange yield) on record.
> print(dat)
                                  substance  observed.measurement
1  96 (KLYSRLVYV; listed as Homo sapiens) [compound 96]      “++” (≥20% = ++)
2  168 (GLIRFPLMTI; listed as Homo sapiens) [compound 168]     “+++” (≥50 = +++)
3  66 (GLDDGPDFL; listed as Homo sapiens) [compound 66]      “++” (≥20% = ++)
4  105 (YALDLSTFL; listed as Homo sapiens) [compound 105]     “+++” (≥50 = +++)

Now consider the entry below.
Prompt line: Please give the measured Peptide exchange (MHC class I binding score, peptide exchange yield) for this substance: 152 (KLLAVIHEL; listed as Homo sapiens) [compound 152]
Response line: “++” (≥20% = ++)
